target: ERα (Homo sapiens); construct: host or cells: MCF7; experiment: Estrogen receptor degradation activity (breast cancer cell ERα in cell western assay); format: cell-based; settings: MCF7 cells, 0.3 μM, 4 hours, % of ERα levels decrease relative to fulvestrant
Sequence (P03372 whole entry): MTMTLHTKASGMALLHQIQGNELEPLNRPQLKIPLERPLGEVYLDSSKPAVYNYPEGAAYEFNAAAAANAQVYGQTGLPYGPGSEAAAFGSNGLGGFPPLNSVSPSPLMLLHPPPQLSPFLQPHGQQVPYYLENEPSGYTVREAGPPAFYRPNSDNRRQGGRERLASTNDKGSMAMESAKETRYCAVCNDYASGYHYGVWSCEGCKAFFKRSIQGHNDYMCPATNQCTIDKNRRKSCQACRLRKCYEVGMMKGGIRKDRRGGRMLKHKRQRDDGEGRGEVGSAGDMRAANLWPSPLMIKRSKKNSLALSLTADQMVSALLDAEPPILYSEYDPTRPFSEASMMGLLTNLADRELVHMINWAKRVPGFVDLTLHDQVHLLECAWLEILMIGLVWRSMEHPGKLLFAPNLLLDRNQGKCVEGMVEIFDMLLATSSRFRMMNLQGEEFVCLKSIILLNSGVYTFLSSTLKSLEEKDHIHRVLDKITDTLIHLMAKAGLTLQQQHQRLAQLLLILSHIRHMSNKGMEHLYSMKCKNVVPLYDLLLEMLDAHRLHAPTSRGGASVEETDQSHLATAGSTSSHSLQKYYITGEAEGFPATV
property_name: % Degradation At 0.3 μM (%)

[
  {
    "compound": "Cc1c(C2=C(c3ccc(CC4CCN(CCCF)C4)cc3)c3ccc(C(=O)O)cc3CCC2)cccc1C(F)(F)F.Cl (single isomer, unassigned; isomer 1)",
    "target_or_system": "ERα (Homo sapiens)",
    "units_label": "%",
    "% Degradation At 0.3 μM": 90
  },
  {
    "compound": "Cl.O=C(O)c1ccc2c(c1)CCCC(c1ccc(F)cc1Cl)=C2c1ccc(CC2CCN(CCCF)C2)cc1 (single isomer, unassigned; isomer 1)",
    "target_or_system": "ERα (Homo sapiens)",
    "units_label": "%",
    "% Degradation At 0.3 μM": 74
  },
  {
    "compound": "Cc1c(F)cccc1C1=C(c2ccc(CC3CCN(CCCF)C3)cc2)c2ccc(C(=O)O)cc2CCC1.Cl (single isomer, unassigned; isomer 1)",
    "target_or_system": "ERα (Homo sapiens)",
    "units_label": "%",
    "% Degradation At 0.3 μM": 90
  },
  {
    "compound": "Cl.O=C(O)c1ccc2c(c1)CCCC(c1cccc(Cl)c1C(F)(F)F)=C2c1ccc(CC2CCN(CCCF)C2)cc1 (single isomer, unassigned; isomer 1)",
    "target_or_system": "ERα (Homo sapiens)",
    "units_label": "%",
    "% Degradation At 0.3 μM": 90
  },
  {
    "compound": "Cl.O=C(O)c1ccc2c(c1)CCCC(c1ccc(F)cc1Cl)=C2c1ccc(CC2CCN(CCC(F)F)C2)cc1 (single isomer, unassigned; isomer 1)",
    "target_or_system": "ERα (Homo sapiens)",
    "units_label": "%",
    "% Degradation At 0.3 μM": 73
  },
  {
    "compound": "CC1(C)CC=C(C2=C(c3ccc(CC4CCN(CCCF)C4)cc3)c3ccc(C(=O)O)cc3CCC2)CC1.Cl (single isomer, unassigned; isomer 1)",
    "target_or_system": "ERα (Homo sapiens)",
    "units_label": "%",
    "% Degradation At 0.3 μM": 90
  },
  {
    "compound": "Cl.O=C(O)c1ccc2c(c1)CCCC(c1cccc(C(F)(F)F)c1)=C2c1ccc(CC2CCN(CCCF)C2)cc1 (single isomer, unassigned; isomer 1)",
    "target_or_system": "ERα (Homo sapiens)",
    "units_label": "%",
    "% Degradation At 0.3 μM": 76
  },
  {
    "compound": "Cc1cc(F)cc(C)c1C1=C(c2ccc(CC3CCN(CCC(F)F)C3)cc2)c2ccc(C(=O)O)cc2CCC1.Cl (single isomer, unassigned; isomer 1)",
    "target_or_system": "ERα (Homo sapiens)",
    "units_label": "%",
    "% Degradation At 0.3 μM": 76
  },
  {
    "compound": "O=C(O)c1ccc2c(c1)CCCC(c1ccc(Cl)cc1Cl)=C2c1ccc(CC2CCN(CCC(F)F)C2)cc1 (single isomer, unassigned; isomer 1)",
    "target_or_system": "ERα (Homo sapiens)",
    "units_label": "%",
    "% Degradation At 0.3 μM": 80
  },
  {
    "compound": "Cl.O=C(O)c1ccc2c(c1)CCCC(c1ccc(Cl)cc1)=C2c1ccc(CC2CCN(CCCF)C2)cc1 (single isomer, unassigned; isomer 1)",
    "target_or_system": "ERα (Homo sapiens)",
    "units_label": "%",
    "% Degradation At 0.3 μM": 93
  },
  {
    "compound": "Cl.O=C(O)c1ccc2c(c1)CCCC(c1cccc(F)c1Cl)=C2c1ccc(CC2CCN(CCCF)C2)cc1 (single isomer, unassigned; isomer 1)",
    "target_or_system": "ERα (Homo sapiens)",
    "units_label": "%",
    "% Degradation At 0.3 μM": 87
  }
]
